Every entry's value here was drawn from patent US5696146A.

target-of-assay: human testosterone 5α-reductase-2 (Homo sapiens)
Construct: using tissue from hyperplastic human prostates; from tissue; host or cells: hyperplastic human prostate, 100,000G particulate preparation
Sequence (P31213 1-254): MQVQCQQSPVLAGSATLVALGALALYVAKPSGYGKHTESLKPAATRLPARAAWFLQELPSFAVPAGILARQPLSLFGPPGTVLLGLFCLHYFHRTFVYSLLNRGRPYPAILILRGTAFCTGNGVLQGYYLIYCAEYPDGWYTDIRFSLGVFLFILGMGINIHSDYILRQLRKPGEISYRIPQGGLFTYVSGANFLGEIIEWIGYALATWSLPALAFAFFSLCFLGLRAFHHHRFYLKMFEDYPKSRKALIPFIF
assay-info: in vitro inhibition of human testosterone 5α-reductase-2 from hyperplastic human prostate tissue (test method 2)
Format: biochemical
conditions: hyperplastic human prostate particulate, pH 5.2, 37° C., 30 minutes
Simple rule here: IC50 less than 7 nM is true, otherwise false.

-- ask I'd appreciate it if you could check whether CCCCCCC1(c2ccc(CCC)cc2)Oc2ccc(CC(=O)c3cn(CCCC(=O)O)c4ccccc34)cc2O1 (stereo not drawn) has IC50 smaller than 7 nM.
-- reply false

-- ask I'd appreciate it if you could check whether CCCCC1(c2ccc(CC)cc2)Oc2ccc(CC(=O)c3cn(CCCC(=O)O)c4ccccc34)cc2O1 (stereo not drawn) has IC50 smaller than 7 nM.
-- reply true

-- ask I'd appreciate it if you could check whether CCCc1ccc(C2(CCC)Oc3ccc(CC(=O)c4cn(CCCC(=O)O)c5ccccc45)cc3O2)cc1 (stereo not drawn) has IC50 smaller than 7 nM.
-- reply false

-- ask I'd appreciate it if you could check whether CCCCCC1(c2ccc(CCC)cc2)Oc2ccc(CC(=O)c3cn(CCCC(=O)O)c4ccccc34)cc2O1 (stereo not drawn) has IC50 smaller than 7 nM.
-- reply false

-- ask I'd appreciate it if you could check whether CCCCC1(c2ccc(CCC)cc2)Oc2ccc(CC(=O)c3cn(CCCC(=O)O)c4ccccc34)cc2O1 (stereo not drawn) [Example 6] has IC50 smaller than 7 nM.
-- reply true
